Hey, just so you know, these numbers are from the CATMoS acute toxicity set (Mansouri et al. 2021).

- procedureDetails: GHS categories as the set defines them, by LD50: 1 up to 5, 2 up to 50, 3 up to 300, 4 up to 2000, 5 above 2000 mg/kg
- recordedConditions: rat; in vivo; po
Reported GHS category values for the following compounds.
Answer with a number only.

Would you please look over these solved cases?
compound	GHS category
CC1C2Cc3ccc(O)cc3C1(C)CCN2CCCC(=O)c1ccc(F)cc1 (configuration not stated)	4
O=C1NC(c2ccccc2)=C2C(=O)NC(c3ccccc3)=C12	5
NC(=O)CC1(CC(=O)O)CCCCC1	5

Request: Look at this compound and give its reported GHS category. COc1ccccc1OC(=O)Cc1ccc(C(=O)c2ccc(C)cc2)n1C
Result: 4

Request: Another compound to look at: C[C@@H]1CC[C@@]2(OC1)O[C@H]1[C@@H](O)[C@H]3[C@@H]4CC[C@H]5C[C@@H](O[C@@H]6O[C@H](CO)[C@H](O[C@@H]7O[C@H](CO)[C@@H](O)[C@H](O[C@@H]8OC[C@@H](O)[C@H](O)[C@H]8O)[C@H]7O[C@@H]7O[C@H](CO)[C@@H](O)[C@H](O[C@@H]8O[C@H](CO)[C@@H](O)[C@H](O)[C@H]8O)[C@H]7O)[C@H](O)[C@H]6O)[C@H](O)C[C@]5(C)[C@H]4CC[C@]3(C)[C@H]1[C@@H]2C
Result: 3

Request: Another compound to look at: COc1cc(NC(=O)c2cc3ccccc3cc2O)c(OC)cc1Cl
Result: 5

Request: Another compound to look at: CC1CC(OC(=O)C(C)(C)Oc2ccc(Cl)cc2)CC(C)(C)C1 (configuration not stated)
Result: 5

====

- procedureDetails: EPA categories
- recordedConditions: rat; in vivo; po
readout: EPA category

> print(dat)
                                 testsmiles  observedmeasurement
1                              Cc1cncc(C)c1                    2
2                    CC(Cl)(Cl)CC(Cl)(Cl)Cl                    2
3                           NC(N)=Nc1ccccc1                    3
4  O=C1c2cccc(Sc3ccccc3)c2C(=O)c2c(Sc3ccccc3)cccc21                    3
5                    Cc1cccc(S(=O)(=O)O)c1C                    3

Request: Look at this compound and give its reported EPA category. CCO[SiH](OCC)OCC
Result: 3

Request: Another compound to look at: O=[N+]([O-])c1cc(N(CCO)CCO)ccc1NCCO
Result: 3

====

- procedureDetails: GHS categories as the set defines them, by LD50: 1 up to 5, 2 up to 50, 3 up to 300, 4 up to 2000, 5 above 2000 mg/kg
- recordedConditions: rat; in vivo; po
Reported GHS category values for the following compounds.
Answer with a number only.

Request: Look at this compound and give its reported GHS category. C=CC(=O)O[Si](C(C)C)(C(C)C)C(C)C
Result: 5

Request: Another compound to look at: O=C(Nc1ccc(NC(=O)c2cc3ccccc3c(N=Nc3cc(Cl)ccc3Cl)c2O)cc1)c1cc2ccccc2c(N=Nc2cc(Cl)ccc2Cl)c1O
Result: 5

Request: Another compound to look at: COc1cc(C(=O)OCCCN2CCCN(CCCOC(=O)c3cc(OC)c(OC)c(OC)c3)CC2)cc(OC)c1OC
Result: 5

Request: Another compound to look at: CC(C#N)c1cccc(C(=O)Cl)c1 (centres undefined)
Result: 5

Request: Another compound to look at: COc1ccccc1NC(=O)c1cc2ccccc2cc1O
Result: 5

Request: Another compound to look at: COc1ccccc1OCCNCC(O)c1ccc(C)c(S(N)(=O)=O)c1 (centres undefined)
Result: 5

Request: Another compound to look at: C=CCSc1nc2ccc(Cc3ccccc3)cc2[nH]1
Result: 5

Request: Another compound to look at: CC1CCC(C(C)C)C(OC(=O)C2OC(O)CS2)C1 (centres undefined)
Result: 5

Request: Another compound to look at: CN(C)CCOc1nn(-c2cccc(C(F)(F)F)c2)c2ncccc12
Result: 4

Request: Another compound to look at: COC(=O)c1nccnc1N
Result: 5

Request: Another compound to look at: C[Si]1(C)O[Si](C)(C)O[Si](C)(C)O[Si](C)(C)O[Si](C)(C)O1
Result: 5

====

- procedureDetails: GHS categories as the set defines them, by LD50: 1 up to 5, 2 up to 50, 3 up to 300, 4 up to 2000, 5 above 2000 mg/kg
- recordedConditions: rat; in vivo; po
Reported GHS category values for the following molecules.
Answer with a number only.

> print(dat)
                   molecule  observedmeasurement
1  CCCO[Si](OCCC)(OCCC)OCCC                    5

Request: Look at this molecule and give its reported GHS category. COC(=O)c1sc(N)c(C#N)c1C
Result: 5

Request: Another molecule to look at: c1ccc2oc(C3(Cn4cncn4)OCCCO3)cc2c1
Result: 4

====

- procedureDetails: rat acute oral toxicity
- recordedConditions: in vivo
Reported LD50 values for the following molecules.
A number alone suffices; assume mg/kg.

Would you please look over these solved cases?
> print(dat)
                        molecule  readout  observedmeasurement
1          CC1(C)CC(N)CC(C)(C)N1     LD50                  906
2     O=[N+]([O-])c1cc(Cl)ccc1Cl     LD50                 1000
3  CCCC1CO1 (stereo unspecified)     LD50                 1330
4      Clc1ccc(C(Cl)(Cl)Cl)cc1Cl     LD50                 1420
5            N#Cc1ccc(Cl)c(Cl)c1     LD50                  200

Request: Look at this molecule and give its reported LD50. COC(=O)c1ccccc1
Result: 1180

Request: Another molecule to look at: CN1CCC[C@H]1c1cccnc1
Result: 51.2

Request: Another molecule to look at: CCCCCCCCC=CCCCCCCCCOCCO
Result: 2700

Request: Another molecule to look at: C=CCOC(=O)c1ccccc1C(=O)OCC=C
Result: 656

====

- procedureDetails: rat acute oral toxicity
- recordedConditions: in vivo
readout: LD50 (mg/kg)
A number alone suffices; assume mg/kg.

Would you please look over these solved cases?
> print(dat)
                                   compound  readout  observedmeasurement
1       CCOP(=O)(OCC)OC(=CCl)c1ccc(Cl)cc1Cl     LD50                 9.66
2  CCCC(=O)OC(C(Cl)(Cl)Cl)P(=O)(OC)OC (configuration not stated)     LD50                  760

Request: Look at this compound and give its reported LD50. COP(=S)(OC)Oc1cc(Cl)c(Br)cc1Cl
Result: 1600

Request: Another compound to look at: CCCCCc1cc(O)c2c(c1)OC(C)(C)[C@@H]1CCC(C)=C[C@@H]21
Result: 666

Request: Another compound to look at: NCCCCCCN
Result: 750

Request: Another compound to look at: COCCOCCOC
Result: 4760

Request: Another compound to look at: CCCCCCC(=O)O
Result: 7000

====

Reported GHS category values for the following compounds.
- procedureDetails: GHS categories as the set defines them, by LD50: 1 up to 5, 2 up to 50, 3 up to 300, 4 up to 2000, 5 above 2000 mg/kg
- recordedConditions: rat; in vivo; po
Answer with a number only.

> print(dat)
                                   compound       readout  observedmeasurement
1  CCCCCCCCCCCC(=O)OCC(C)O (stereo unspecified)  GHS category                    5
2  O=C(Nc1ccc(Cl)cc1C(O)c1ccccc1)c1ccncc1 (stereo unspecified)  GHS category                    5
3     CCOC(=O)CSc1nc(C(C)(C)C)nn1C(=O)N(C)C  GHS category                    3

Request: Look at this compound and give its reported GHS category. CN1CC(c2ccnn2-c2ccccc2)CC2c3cccc4[nH]cc(c34)CC21 (stereo unspecified)
Result: 4

Request: Another compound to look at: CC1(C)Oc2cc(C(=O)c3ccccc3)ccc2NC1=O
Result: 5

Request: Another compound to look at: Nc1nc(=O)c2c(CCc3ccc(C(=O)O)cc3)c[nH]c2[nH]1
Result: 5
